# Assay target: R132H IDH1 (Homo sapiens, UniProt O75874, R132H)
# Sequence (O75874 whole entry R132H): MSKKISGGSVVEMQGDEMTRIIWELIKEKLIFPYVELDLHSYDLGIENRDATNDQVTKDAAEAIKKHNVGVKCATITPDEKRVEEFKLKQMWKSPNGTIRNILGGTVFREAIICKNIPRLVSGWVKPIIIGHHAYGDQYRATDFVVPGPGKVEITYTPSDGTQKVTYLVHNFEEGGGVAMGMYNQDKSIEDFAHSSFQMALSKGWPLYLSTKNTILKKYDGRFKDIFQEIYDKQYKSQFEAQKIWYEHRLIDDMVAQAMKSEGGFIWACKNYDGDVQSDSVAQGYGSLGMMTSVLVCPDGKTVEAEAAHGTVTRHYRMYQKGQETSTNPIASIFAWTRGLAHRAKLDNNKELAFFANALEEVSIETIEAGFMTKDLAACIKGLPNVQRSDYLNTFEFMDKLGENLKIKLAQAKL
# Assay method text: Absorbance assay, variant activity in the presence of equimolar 2OG (inhibition screen)
# Type: biochemical
# Parameters: made in house; host or cells: Escherichia coli BL21(DE3) pLyS
Endpoint name: activity [%] (%-substrate conversion after 20 min incubation)

>>> df
                                   molecule  endpoint_result
0  O=C(O)/C=C(/CC(=O)O)C(=O)O [cis-aconitic acid]         100 ± 2%
1      O=C(O)CC(C(=O)O)C(O)C(=O)O (racemic)          78 ± 5%
2       O=C1CC(C(=O)O)C(C(=O)O)O1 (racemic)          99 ± 2%
3                O=C(O)CC(O)(CC(=O)O)C(=O)O        115 ± 25%

###

# Assay target: R132H IDH1 (Homo sapiens, UniProt O75874, R132H)
# Assay method text: Absorbance assay, variant activity in the presence of equimolar 2OG (inhibition screen)
# Type: biochemical
# Set-up: made in house; host or cells: Escherichia coli BL21(DE3) pLyS
# Cond: […] 2OG and […] test compound, 0.03 μM R132H IDH1, 50 μM NADPH
Where a name gives a salt, the structure may show the parent alone.
We begin with a simple list: items and their reported activity [%] (%-substrate conversion after 20 min incubation).
Endpoint name: activity [%] (%-substrate conversion after 20 min incubation) (%)

>>> print(df.to_string())
                                    compound  unit_string  relation_symbol  endpoint_result
 0  O=C(O)C(=O)CC(CCCc1ccccc1)C(=O)O (racemic)            %                =               82
 1       CCCCC(CC(=O)C(=O)O)C(=O)O (racemic)            %                =              113
 2  COC(=O)CC(C)C(=O)OC (racemic) [DL-dimethyl 2-methylsuccinate]            %                =              104
 3                      C/C(=C\C(=O)O)C(=O)O            %                =              105
 4               O=C(O)C(=O)c1cccc(C(=O)O)c1            %                =               88
 5                  O=C(O)C(=O)c1cscc1C(=O)O            %                =              102
 6                         O=C(O)C(=O)C(=O)O            %                =               79
 7                           CSCCC(=O)C(=O)O            %                =               97
 8  O=C(O)CC(Cc1ccccc1)C(=O)C(=O)O (stereo not drawn)            %                =              229
 9                     CC(O)C(=O)O (racemic)            %                =              104
10  O=C[C@H](O)[C@@H](O)[C@H](O)[C@H](O)C(=O)O            %                =              104
11         CCC(CC(=O)C(=O)O)C(=O)O (racemic)            %                =              103
12                         CC(C)CC(=O)C(=O)O            %                =               99
13  O=C(O)C(=O)C1CC1C(=O)O (mixture of isomers)            %                =              132
14                      O=C(O)CCCC(=O)C(=O)O            %                =              115
15  COc1ccc(CC(CC(=O)O)C(=O)C(=O)O)cc1 (racemic)            %                =              200
16              O=C(O)C(=O)Cc1c[nH]c2ccccc12            %                =               81
17                            O=C(O)CCC(=O)O            %                =              100
18                       O=C(O)CC(=O)CC(=O)O            %                =               95
19  O=C(O)CNC(=O)C(=O)O [NOG, N-oxalylglycine, reference compound]            %                <               10
20  O=C(O)CCC(O)C(=O)O (racemic) [DL-2-hydroglutaric acid]            %                =               89
21                     O=C(O)C(=O)CCc1ccccc1            %                =               90
22                        C=C(CC(=O)O)C(=O)O            %                =               92
23  CC1(C)C(C(=O)O)C1C(=O)C(=O)O (mixture of isomers)            %                =               92
24                              NC(=O)C(=O)O            %                =               99
25  O=C(O)CC(Cc1ccc(F)cc1)C(=O)C(=O)O (racemic)            %                =              186
26         CCC(CC(=O)O)C(=O)C(=O)O (racemic)            %                =              317
27  O=C(O)C(=O)CC(O)C(=O)O (racemic) [DL-4-hydroxy-2-oxoglutaric acid]            %                =               82
28  O=C(O)C(=O)CC(Cc1ccc2ccccc2c1)C(=O)O (racemic)            %                =               31
29                     CC[C@H](C)C(=O)C(=O)O            %                =              104
30                                 O=CC(=O)O            %                =              108
31                        O=C(O)[C@@H]1CCCN1            %                =               98
32                 CC(C)(CC(=O)C(=O)O)C(=O)O            %                =              118
33   COC(=O)/C=C/C(=O)OC [dimethyl fumarate]            %                =               85
34               CC(CC(=O)O)C(=O)O (racemic)            %                =              104
35  O=C(O)C(=O)C1C2C=CC(C2)C1C(=O)O (racemic)            %                =              116
36  O=C(O)CCC(=O)C(=O)O [2OG, 2-oxoglutarate, reference compound]            %                =              100
37              NC(CCC(=O)O)C(=O)O (racemic)            %                =               83
38                              CC(=O)C(=O)O            %                =              112
39  CCCCC(CC(=O)O)C(=O)C(=O)O (stereo not drawn)            %                =              376
40        CCCC(CC(=O)O)C(=O)C(=O)O (racemic)            %                =              294
41               O=C(O)C(=O)c1ccc(C(=O)O)cc1            %                =              103

Numbers sourced from paper PMC9939733.
